Molecular target: GlcNAc(b1-6)GalNAc
Test: glycan array binding signal (z-score within array); higher = stronger binding
Details: glycan notation: IUPAC condensed, linker removed
The full list was thinned out, with the strongest signals kept by preference.
endpoint-name: glycan array binding signal (z-score)

[[record]]
binder = "Threefoil (Haloarcula marismortui) (protein) GSSHHHHHHHHHHSSGLVPRGSHMGDGYYKLVARHSGKALDVENASTSDGANVIQYSYSGGDNQQWRLVDLGDGYYKLVARHSGKALDVENASTSDGANVIQYSYSGGDNQQWRLVDLGDGYYKLVARHSGKALDVENASTSDGANVIQYSYSGGDNQQWRLVDL"
assay_value = -0.181

[[record]]
binder = "DC-ASGPR L+GEE (Homo sapiens) (protein) MTRTYENFQYLENKVKVQGFKNGPLPLQSLLQRLRSGPCHLLLSLGLGLLLLVIICVVGFQNSKFQRDLVTLRTDFSNFTSNTVAEIQALTSQGSSLEETIASLKAEVEGFKQERQAGVSELQEHTTQKAHLGHCPHCPSVCVPVHSEMLLRVQQLVQDLKKLTCQVATLNNNGEEASTEGTCCPVNWVEHQDSCYWFSHSGMSWAEAEKYCQLKNAHLVVINSREEQNFVQKYLGSAYTWMGLSDPEGAWKWVDGTDYATGFQNWKPGQPDDWQGHGLGGGEDCAHFHPDGRWNDDVCQRPYHWVCEAGLGQTSQESH"
assay_value = 3.71

